# assayNotes: chemical genetic growth profiling, strain panel (AID 1159580);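 also: tested at 20 µM; growth read once vehicle control cultures reached saturation at 30 °C; 1 = growth at the plate median or of vehicle wells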
# experimentalConditions: S. cerevisiae deletion strains, growth OD, locus YDR335W, strain msn5, stronger effect = lower value
About 2,000 (36%) of roughly 5,500 compounds were called active. Roughly 18% stayed inconclusive and do not appear here. The list shows a part of the results.
For each of the molecules below, state its normalized growth.
API note: the answer field is a bare number with no unit suffix.

Look up normalized growth for this molecule: O=S(=O)(O)CCS
0.981

Form field: reported normalized growth of C=C[C@@](C)(O)CCC1C(=C)CCC2[C@@](C)(CO)CCC[C@]12C (some centres undefined)
0.982

# lookup: normalized growth of CC#CC1(O)CCC2C3CCC4=CC(=O)CCC4=C3C(c3ccc(N(C)C)cc3)CC21C (centres undefined)
0.998

Which measured normalized growth value corresponds to Nc1nc(=S)c2[nH]cnc2[nH]1 ?
0.98

Suppose we examine the molecule C=C1CCC2[C@](C)(CO)[C@H](O)CC[C@@]2(C)[C@@H]1C/C=C1/C(=O)OC[C@H]1O (some centres undefined) ; what normalized growth value has been reported?
0.986

Can you share its normalized growth? I mean this molecule: COc1ccc(-c2coc3cc(O)ccc3c2=O)c(OC)c1
1.02

Which value of normalized growth has been reported for CN(C)CCCC1(c2ccc(F)cc2)OCc2cc(C#N)ccc21 (centres undefined) in the records?
0.991

Which normalized growth value belongs to CC(C)NCC(O)COc1cccc2[nH]ccc12 (centres undefined) ?
0.983

Look at this molecule and give its reported normalized growth. CC[C@]1(O)CC2CN(CCc3c([nH]c4ccccc34)[C@@](C(=O)OC)(c3cc4c(cc3OC)N(C)[C@H]3[C@@](O)(C(=O)OC)[C@H](OC(C)=O)[C@]5(CC)C=CCN6CC[C@]43[C@@H]65)C2)C1 (some centres undefined)
0.981

---

# assayNotes: chemical genetic growth profiling, strain panel (AID 1159580)
# experimentalConditions: S. cerevisiae deletion strains, growth OD, locus YDL101C, strain DUN1, stronger effect = lower value
Screen size: about 5,500 compounds; about 2,000 (36%) were called active. Inconclusive results (about 18%) are left out. Some of the results follow.
Rule for this label: fulfilled means normalized growth is less than 1; not fulfilled means normalized growth is at least 1.

Could you please tell me whether normalized growth recorded for CN(C)CCOC(c1ccc(Cl)cc1)c1ccccn1 (stereo unspecified) is less than 1?
not fulfilled

Determine if CN1C2CCC1CC(OC(c1ccccc1)c1ccccc1)C2 (stereo unspecified) shows normalized growth strictly lower than 1.
fulfilled

---

# assayNotes: chemical genetic growth profiling, strain panel (AID 1159580)
# experimentalConditions: S. cerevisiae deletion strains, growth OD, locus YHR082C, strain KSP1, stronger effect = lower value
Out of some 5,500 compounds screened, about 2,000 (36%) were called active. Roughly 18% stayed inconclusive and do not appear here. The list shows a part of the results.
Assignment: determine reported normalized growth for the given molecules.
Form rule: numeric answer, no unit written next to it.

Need normalized growth of O=C(Oc1cccc2[nH]ccc12)c1ccc(C(F)(F)F)cc1 , thanks.
0.857

normalized growth for COc1ccc(C(CC(=O)c2ccccc2)Sc2ccccc2N)cc1OC (centres undefined) ?
0.985

Data request, read-out normalized growth, for Cc1c(C(=O)Sc2ccc(F)cc2F)sc2nc(C(F)(F)F)nn12
0.133

What does the data say about its normalized growth? Entry: O=[N+]([O-])c1ccc(-c2noc(-c3ccno3)n2)o1
0.143

---

# assayNotes: chemical genetic growth profiling, strain panel (AID 1159580);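 also: tested at 20 µM; growth read once vehicle control cultures reached saturation at 30 °C; 1 = growth at the plate median or of vehicle wells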
# experimentalConditions: S. cerevisiae deletion strains, growth OD, locus YBR009C, strain hhf1, stronger effect = lower value
The whole screen tested about 5,500 compounds, of which about 2,000 (36%) were called active. Inconclusive results (about 18%) are left out. Some of the results follow.
valueKind: normalized growth
Returns: the value as a bare number; no unit string appended.

Please report the recorded normalized growth for N=c1ccn2c(n1)OC1C(O)C(CO)OC12 (configuration not stated) .
1.01

# lookup: normalized growth of COC(=O)C[C@H]1C2(C)CC34OC5(C)O[C@@]6([C@H](OC(C)=O)C(OC(C)=O)[C@]7(C)C(/C(=C(/O)C(C)C)C(=O)O[C@H]7c7ccoc7)[C@@]6(O5)[C@H](OC(C)=O)[C@@]3(O)C2OC(=O)C(C)C)[C@]14C (some centres not stated)
1.01

State the recorded normalized growth for this entry: C=C[C@@](C)(O)CCC1C(=C)C[C@H](OC(C)=O)C2C(C)(C)CCCC12C (some centres not stated)
1

Request the reported normalized growth associated with Clc1ccc(C(OCCN2CCCCC2)c2ccccc2)cc1 (configuration not stated)
1

Entry c1ccc2c(c1)CCCC2C1=NCCN1 (configuration not stated) has what normalized growth?
1.03

Data request, read-out normalized growth, for CN1C2C[C@H](OC(=O)[C@H](CO)c3ccccc3)C[C@H]1[C@@H](O)C2
1.01

Which normalized growth reading was recorded for the compound COC(=O)/C=C/C(C)=C/C=C/C(C)=C/C=C/C=C(C)/C=C/C=C(C)/C=C/C(=O)O ?
1.02

// normalized growth lookup, key: CN1C2CCC1CC(OC(c1ccccc1)c1ccccc1N)C2 (configuration not stated)
0.998

Can you look up the measured normalized growth of CN(C)CCOC(c1ccc(Cl)cc1)c1ccccn1 (configuration not stated) for me?
1.02

Quick one: normalized growth for CN1C2CCC1CC(OC(c1ccccc1)c1ccccc1)C2 (configuration not stated) ?
0.968

# normalized growth lookup, item C=C1CCC2[C@](C)(CO)[C@H](O)CC[C@@]2(C)[C@@H]1C/C=C1/C(=O)OC[C@H]1O (some centres not stated)
1.02

Any idea what normalized growth was measured for CCCCCCCCCCCCCc1ccco1 ?
0.825

---

# assayNotes: chemical genetic growth profiling, strain panel (AID 1159580);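 also: tested at 20 µM; growth read once vehicle control cultures reached saturation at 30 °C; 1 = growth at the plate median or of vehicle wells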
# experimentalConditions: S. cerevisiae deletion strains, growth OD, locus YER110C, stronger effect = lower value
Hit rate of the full screen: of about 5,500 compounds, about 2,000 (36%) were called active. Not shown: some 18% with an inconclusive outcome. Some of the results follow.
Would you kindly list normalized growth for each of these compounds?

For Cc1ncc(CNC(=O)N(CCCl)N=O)c(N)n1 , what is its reported normalized growth?
0.979 (inactive)

Returns the measured normalized growth for the input compound. Input: CCN(CC)C(=O)N1CCN(C)CC1
0.991 (inactive)

May I ask what normalized growth has been recorded for Clc1ccc(C(c2ccc(Cl)cc2)C(Cl)(Cl)Cl)cc1 ?
0.997 (inactive)

I would be grateful if you could share the reported normalized growth for C[C@@H]1O[C@@H](O[C@H]2[C@H](Oc3cc(O)c4c(=O)cc(-c5ccc(O)cc5)oc4c3)O[C@H](CO)[C@@H](O)[C@@H]2O)[C@H](O)[C@H](O)[C@H]1O .
0.982 (inactive)

Quick one: normalized growth for CCN1CCCC(OC(=O)C(c2ccccc2)c2ccccc2)C1 (configuration not stated) ?
1.01 (inactive)

normalized growth lookup needed for O=C1CCC(N2C(=O)c3ccccc3C2=O)C(=O)N1 (configuration not stated) , thanks.
0.99 (inactive)

Consider the compound CC(=O)O[C@H]1C[C@@H](OC(C)=O)C(C)(C)C2CC(=O)[C@]3(C)C(CC[C@@]4(C)[C@H](C(=O)O)OC(=O)C5OC543)[C@]21C (some centres not stated) and give its measured normalized growth.
0.979 (inactive)

---

# assayNotes: chemical genetic growth profiling, strain panel (AID 1159580);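 also: tested at 20 µM; growth read once vehicle control cultures reached saturation at 30 °C; 1 = growth at the plate median or of vehicle wells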
# experimentalConditions: S. cerevisiae deletion strains, growth OD, locus YOR184W, strain ser1, stronger effect = lower value
The whole screen tested about 5,500 compounds, of which about 2,000 (36%) were called active. Another 18% or so got no clear call; they are omitted. The list shows a part of the results.
Provide the recorded normalized growth for the entries that follow.
Answer field: number only, no words.

State the recorded normalized growth for this entry: CCN(CC)Cc1ccc(Nc2ccnc3cc(Cl)ccc23)cc1O
0.992

Consider the compound shown here: CN(C)CCOC(c1ccc(Cl)cc1)c1ccccn1 (stereo not drawn) What is its recorded normalized growth?
0.997

Entry CNCCC(Oc1ccc(C(F)(F)F)cc1)c1ccccc1 (stereo not drawn) has what normalized growth?
1

So what does the record say about normalized growth for O=C(O)c1cc2cc(F)ccc2[nH]1 ?
1.02

Look up normalized growth for this compound: CC(C)NCC(O)COc1cccc2[nH]ccc12 (stereo not drawn)
0.988

Can you look up the measured normalized growth of COc1ccc([C@H]2Oc3c(I)c(OC)cc(OC)c3C[C@@H]2O)cc1OC for me?
1.08

Name the reported normalized growth value associated with the compound O=C(OCC(O)CO)c1ccccc1Nc1ccnc2cc(Cl)ccc12 (stereo not drawn)
0.954

Request the reported normalized growth associated with Oc1cc(O)c2c(c1)OC(c1cc(O)c(O)c(O)c1)C(O)C2c1c(O)cc(O)c2c1OC(c1cc(O)c(O)c(O)c1)C(O)C2c1c(O)cc(O)c2c1OC(c1cc(O)c(O)c(O)c1)C(O)C2 (stereo not drawn)
0.968

Taken from PubChem BioAssay AID1159580.
